Biological target: CDK9 (Homo sapiens)
Construct: endogenous in cells; host or cells: MDA-MB-231
Sequence (P50750 whole entry): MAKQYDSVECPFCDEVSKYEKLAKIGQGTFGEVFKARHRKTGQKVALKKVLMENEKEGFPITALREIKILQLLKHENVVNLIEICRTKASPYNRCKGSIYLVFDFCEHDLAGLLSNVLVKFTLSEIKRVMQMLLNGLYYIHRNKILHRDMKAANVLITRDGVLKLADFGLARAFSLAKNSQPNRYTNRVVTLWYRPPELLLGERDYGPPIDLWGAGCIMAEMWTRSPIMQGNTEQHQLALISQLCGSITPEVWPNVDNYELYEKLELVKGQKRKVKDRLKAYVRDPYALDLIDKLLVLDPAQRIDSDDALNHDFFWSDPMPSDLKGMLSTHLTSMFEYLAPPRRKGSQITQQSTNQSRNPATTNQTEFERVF
Assay: CDK protein degradation activity (Western blotting), CDK9
Format: cell-based
Conditions: MDA-MB-231 cells, 0.1 μM, 16 hours, Western blot
measurement.type: Enzyme degradation CDK9 (% remaining) @ 0.1 μM (%)

O=C(COc1ccc2c(c1)C(=O)N(C1CCC(=O)NC1=O)C2=O)NC[C@H]1CC[C@H](CN2CCN(c3ccc(Nc4ncnc5c4ncn5[C@H]4C[C@@H](NC(=O)Cc5ccccc5)C4)cc3)CC2)CC1 (stereo partly shown)	100
O=C1CCC(N2C(=O)C=C(N3CCC(C(=O)NC[C@H]4CC[C@H](CN5CCN(c6ccc(Nc7ncnc8c7ncn8[C@H]7C[C@@H](NC(=O)Cc8ccccc8)C7)cc6)CC5)CC4)CC3)C2=O)C(=O)N1 (stereo partly shown)	10
CC(=O)N[C@H]1C[C@@H](n2cnc3c(NCC4CCN(CC5CCN(C(=O)CNc6ccc7c(c6)C(=O)N([C@H]6CCC(=O)NC6=O)C7=O)CC5)CC4)ncnc32)C1	80
O=C1CC[C@H](n2nnc3ccc(N4CCC5(CC4)CC(N4CCN(c6ccc(Nc7ncnc8c7ncn8[C@H]7C[C@@H](NC(=O)Cc8ccccc8)C7)cc6)CC4)C5)cc3c2=O)C(=O)N1	10
Cc1cccc(C(=O)N[C@H]2C[C@@H](n3cnc4c(NCc5cccc(OCCCN6CCN(C(=O)COc7cccc8c7C(=O)N([C@H]7CCC(=O)NC7=O)C8=O)CC6)c5)ncnc43)C2)n1	80
O=C1CC[C@H](N2C(=O)c3ccc(N4CCC(CCCN5CCN(c6ccc(Nc7ncnc8c7ncn8C7CC(NC(=O)Cc8ccccc8)C7)cc6)CC5)CC4)cc3C2=O)C(=O)N1 (stereo partly shown)	40
O=C1CC[C@H](N2C(=O)c3cccc(N4CC(N5CCC6(CC5)CC(N5CCN(c7ccc(Nc8ncnc9c8ncn9[C@H]8C[C@@H](NC(=O)Cc9ccccc9)C8)cc7)CC5)C6)C4)c3C2=O)C(=O)N1	40
O=C1CC[C@H](N2C(=O)c3cccc(CCCCN4CCC(CN5CCN(c6ccc(Nc7ncnc8c7ncn8[C@H]7C[C@@H](NC(=O)c8cccc(C(F)(F)F)n8)C7)cc6)CC5)CC4)c3C2=O)C(=O)N1	0
Cc1cccc(C(=O)N[C@H]2C[C@@H](n3cnc4c(NC5CCN(CCCCCCNc6ccc7c(c6)C(=O)N([C@H]6CCC(=O)NC6=O)C7=O)CC5)ncnc43)C2)n1	10
Cc1cccc(C(=O)N[C@H]2C[C@H](n3cnc4c(NCC5CCN(C(=O)CCCCCNc6ccc7c(c6)C(=O)N([C@@H]6CCC(=O)NC6=O)C7=O)CC5)ncnc43)C2)n1	30

###

Target: CDK2 (Homo sapiens, UniProt P24941)
Construct: endogenous in cells; host or cells: MDA-MB-231
Experiment: CDK protein degradation activity (Western blotting), CDK2
Type: cell-based
Settings: MDA-MB-231 cells, 1 μM, 16 hours, Western blot
Lab note: cut-off is 40%. Strictly less in Enzyme degradation CDK2 (% remaining) @ 1 μM is 1.0. Exactly 40% or more is 0.0.

O=C1CC[C@H](N2C(=O)c3ccc(OCC(=O)N4CCC(CCCN5CCN(c6ccc(Nc7ncnc8c7ncn8[C@H]7C[C@@H](NC(=O)Cc8ccccc8)C7)cc6)CC5)CC4)cc3C2=O)C(=O)N1	1.0
Cc1cccc(C(=O)N[C@H]2C[C@@H](n3cnc4c(Nc5ccc(N6CCN(C7CC8(CCN(c9ccc%10nnn([C@H]%11CCC(=O)NC%11=O)c(=O)c%10c9)CC8)C7)CC6)cc5)ncnc43)C2)n1	1.0
O=C1CC[C@H](N2C(=O)c3ccc(N4CCN(C5CC6(CCN(c7ccc(Nc8ncnc9c8ncn9[C@H]8C[C@@H](NC(=O)Cc9ccccc9)C8)cc7)CC6)C5)CC4)cc3C2=O)C(=O)N1	1.0
O=C1CC[C@@H](c2ccc(OCC(=O)N3CCC(CN4CCC(c5ccc(Nc6ncnc7c6ncn7C6CC(NC(=O)Cc7ccccc7)C6)cc5)CC4)CC3)cc2)C(=O)N1 (stereo partly shown)	0.0
O=C1CC[C@H](N2C(=O)c3cc(F)c(N4CCC(C(=O)N5CCC(CCN6CCN(c7ccc(Nc8ncnc9c8ncn9[C@H]8C[C@@H](NC(=O)Cc9ccccc9)C8)cc7)CC6)CC5)CC4)cc3C2=O)C(=O)N1	0.0
Cc1cccc(C(=O)N[C@H]2C[C@@H](n3cnc4c(NC5CCN(CCC6CCN(C(=O)CNc7ccc8c(c7)C(=O)N([C@H]7CCC(=O)NC7=O)C8=O)CC6)CC5)ncnc43)C2)n1 (racemic)	1.0
